# assayed-system: MHC-II DRB1*15:03 (Homo sapiens, UniProt P01903+P01911, Y59H)
# Construct: purchased ProImmune
# Sequence (P01903 26-254, other chains not shown): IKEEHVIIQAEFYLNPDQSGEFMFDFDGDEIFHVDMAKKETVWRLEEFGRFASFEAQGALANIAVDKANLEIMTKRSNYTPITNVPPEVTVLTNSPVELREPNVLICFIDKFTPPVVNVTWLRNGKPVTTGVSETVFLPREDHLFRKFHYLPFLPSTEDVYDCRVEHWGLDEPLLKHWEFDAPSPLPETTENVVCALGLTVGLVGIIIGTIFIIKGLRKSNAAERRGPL
# protocol-notes: Cell-free REVEAL class II binding assay
# experimental-context: signal of test peptide as percentage of allele-specific positive control peptide, fluorescence, conformation-specific monoclonal antibody
test-readout: Binding Score (%)
Give bare numbers, in %.

Below are worked cases with known answers.
>>> measurement("PQVNNPKEWLQVDFQ [synthetic wild type FVIII 15 mer peptide]")
0.0
>>> measurement("YIRLHPTHYSIRSTL [synthetic wild type FVIII 15 mer peptide]")
234.7
>>> measurement("GPTKSDPRCLTRYYS [synthetic wild type FVIII 15 mer peptide]")
3.8
>>> measurement("PENDIEKTDPWFAHR [synthetic wild type FVIII 15 mer peptide, region of ns-SNP R776G]")
0.3

Record Binding Score per entry; entries follow.
1. NPPIIARYIRLHPTH [synthetic wild type FVIII 15 mer peptide]
2. KTDPWFAHRTPMPKI [synthetic wild type FVIII 15 mer peptide, region of ns-SNP R776G]

Given back:
15.2
0.2

Record Binding Score per entry; entries follow.
1. IIMYSLDGKKWQTYR [synthetic wild type FVIII 15 mer peptide]
2. SYWKASEGAEYDDQT [synthetic wild type FVIII 15 mer peptide]
3. PPLLTRYLRIHPQSW [synthetic wild type FVIII 15 mer peptide]
4. YNIYPHGITDVRPLY [synthetic wild type FVIII 15 mer peptide, region of ns-SNP R484H]
5. VVNSLDPPLLTRYLR [synthetic wild type FVIII 15 mer peptide]
6. YPHGITDVRPLYSRR [synthetic wild type FVIII 15 mer peptide, region of ns-SNP R484H]

Given back:
1: 47.8; 2: 0.0; 3: 21.7; 4: 0.1; 5: 2.2; 6: 0.1

Record Binding Score per entry; entries follow.
1. YSLDGKKWQTYRGNS [synthetic wild type FVIII 15 mer peptide]
2. QKTMKVTGVTTQGVK [synthetic wild type FVIII 15 mer peptide, region of ns-SNP M2238V]

Given back:
0.2
0.0

----------
# assayed-system: MHC-II DRB1*04:01 (Homo sapiens, UniProt P01903+P01911, A100K/A169T/F76Y/I96L/K127E/L162R/M171V/N62H/P40V/Q125Y/R42H/S133A/S149N/S66Y/V115G/V209L/W38E)
# protocol-notes: Cell-free REVEAL class II stability assay
# experimental-context: half-life of peptide-MHC-II complex (h, capped at 120) x Binding Score / 100, conformational ELISA
Hi there, I'd appreciate the recorded Stability Index for every entry that follows.
One number for each entry.

Record Stability Index per entry; entries follow.
1. IIMYSLDGKKWQTYR [synthetic wild type FVIII 15 mer peptide]
2. GITDVRPLYSRRLPK [synthetic wild type FVIII 15 mer peptide, region of ns-SNP R484H]
3. RSNAWRPQVNNPKEW [synthetic wild type FVIII 15 mer peptide]
4. PWFAHRTPMPKIQNV [synthetic wild type FVIII 15 mer peptide, region of ns-SNP R776G]
5. PIIARYIRLHPTHYS [synthetic wild type FVIII 15 mer peptide]
6. PQVNNPKEWLQVDFQ [synthetic wild type FVIII 15 mer peptide]
7. DGAYAPVLQDFRSLN [synthetic wild type FVIII 15 mer peptide, region of ns-SNP D1241E]
8. YIRLHPTHYSIRSTL [synthetic wild type FVIII 15 mer peptide]

Given back:
1. 0.7
2. 0.1
3. 12.4
4. 0.8
5. 6.9
6. 0.0
7. 0.1
8. 61.0

----------
# assayed-system: MHC-II DRB1*03:01 (Homo sapiens, UniProt P01903+P01911, A100K/A102G/A103R/A169T/F55Y/I96L/K41T/L162R/M171V/P40S/Q125H/Q178H/Q39Y/R42S/S66N/T106N/T262R/W38E/Y61H)
# protocol-notes: Cell-free REVEAL class II binding assay
# experimental-context: signal of test peptide as percentage of allele-specific positive control peptide, fluorescence, conformation-specific monoclonal antibody
test-readout: Binding Score (%)
One number for each entry, in %.

>>> measurement("FSSLYISQFIIMYSL [synthetic wild type FVIII 15 mer peptide]")
0.6
>>> measurement("HKMVYEDTLTLFPFS [synthetic wild type FVIII 15 mer peptide]")
56.5
>>> measurement("TLTLFPFSGETVFMS [synthetic wild type FVIII 15 mer peptide]")
0.0
>>> measurement("NPPIIARYIRLHPTH [synthetic wild type FVIII 15 mer peptide]")
0.4
>>> measurement("YIRLHPTHYSIRSTL [synthetic wild type FVIII 15 mer peptide]")
7.9

Record Binding Score per entry; entries follow.
1. RSNAWRPQVNNPKEW [synthetic wild type FVIII 15 mer peptide]
2. YSLDGKKWQTYRGNS [synthetic wild type FVIII 15 mer peptide]
3. SYDGAYAPVLQDFRS [synthetic wild type FVIII 15 mer peptide, region of ns-SNP D1241E]
4. TRYLRIHPQSWVHQI [synthetic wild type FVIII 15 mer peptide]
5. SDPRCLTRYYSSFVN [synthetic wild type FVIII 15 mer peptide]

Given back:
0.0
0.0
1.7
0.0
0.5

----------
Hi there, I'd appreciate the recorded Stability Index for every entry that follows.
# assayed-system: MHC-II DRB1*07:01 (Homo sapiens, UniProt P01903+P01911, A100R/A102G/A103Q/D57E/D86V/E43K/F76Y/K127E/L162R/M171V/P40G/Q125H/Q99D/R33Q/R42Y/R54Q/S133A/S66F/T210M/V115G/Y107V/Y59L/Y89S)
# protocol-notes: Cell-free REVEAL class II stability assay
# experimental-context: half-life of peptide-MHC-II complex (h, capped at 120) x Binding Score / 100, conformational ELISA
Give bare numbers.

>>> measurement("QKTMKVTGVTTQGVK [synthetic wild type FVIII 15 mer peptide, region of ns-SNP M2238V]")
0.0

Record Stability Index per entry; entries follow.
1. PRCLTRYYSSFVNME [synthetic wild type FVIII 15 mer peptide]
2. FSSLYISQFIIMYSL [synthetic wild type FVIII 15 mer peptide]

Given back:
1. 0.0
2. 0.0

Please fill in: Stability Index reported for NPPIIARYIRLHPTH [synthetic wild type FVIII 15 mer peptide] = 0.2

----------
# assayed-system: MHC-II DRB1*11:01 (Homo sapiens, UniProt P01903+P01911, A100R/A169T/A87E/I96F/K41T/L162R/M171V/P40S/Q125H/Q178H/Q39Y/Q99D/R42S/S66Y/T262R/V115G/W38E)
# protocol-notes: Cell-free REVEAL class II binding assay
# experimental-context: signal of test peptide as percentage of allele-specific positive control peptide, fluorescence, conformation-specific monoclonal antibody
Hi there, I'd appreciate the recorded Binding Score for every entry that follows.
# output: numeric value plus its unit

Below are worked cases with known answers.
>>> measurement("VVNSLDPPLLTRYLR [synthetic wild type FVIII 15 mer peptide]")
"0.2%"
>>> measurement("QKFSSLYISQFIIMY [synthetic wild type FVIII 15 mer peptide]")
"0.4%"
>>> measurement("AVGVSYWKASEGAEY [synthetic wild type FVIII 15 mer peptide]")
"0.3%"
>>> measurement("KTDPWFAHRTPMPKI [synthetic wild type FVIII 15 mer peptide, region of ns-SNP R776G]")
"0.5%"

Record Binding Score per entry; entries follow.
1. LFLLSTRQNVEGSYD [synthetic wild type FVIII 15 mer peptide, region of ns-SNP D1241E]
2. IFNPPIIARYIRLHP [synthetic wild type FVIII 15 mer peptide]
3. SRPYNIYPHGITDVR [synthetic wild type FVIII 15 mer peptide, region of ns-SNP R484H]
4. SLHAVGVSYWKASEG [synthetic wild type FVIII 15 mer peptide]

Given back:
["92.0%", "61.5%", "12.0%", "0.3%"]

----------
Hi there, I'd appreciate the recorded Binding Score for every entry that follows.
# assayed-system: MHC-II DRB1*11:01 (Homo sapiens, UniProt P01903+P01911, A100R/A169T/A87E/I96F/K41T/L162R/M171V/P40S/Q125H/Q178H/Q39Y/Q99D/R42S/S66Y/T262R/V115G/W38E)
# protocol-notes: Cell-free REVEAL class II binding assay
# experimental-context: signal of test peptide as percentage of allele-specific positive control peptide, fluorescence, conformation-specific monoclonal antibody
Answers are plain numbers, in %.

Record Binding Score per entry; entries follow.
1. TLTLFPFSGETVFMS [synthetic wild type FVIII 15 mer peptide]
2. PENDIEKTDPWFAHR [synthetic wild type FVIII 15 mer peptide, region of ns-SNP R776G]
3. AWRPQVNNPKEWLQV [synthetic wild type FVIII 15 mer peptide]

Given back:
1. 0.1
2. 2.9
3. 0.1

----------
# assayed-system: MHC-II DRB1*03:01 (Homo sapiens, UniProt P01903+P01911, A100K/A102G/A103R/A169T/F55Y/I96L/K41T/L162R/M171V/P40S/Q125H/Q178H/Q39Y/R42S/S66N/T106N/T262R/W38E/Y61H)
# protocol-notes: Cell-free REVEAL class II stability assay
# experimental-context: half-life of peptide-MHC-II complex (h, capped at 120) x Binding Score / 100, conformational ELISA
test-readout: Stability Index
Numbers only.

>>> measurement("YPHGITDVRPLYSRR [synthetic wild type FVIII 15 mer peptide, region of ns-SNP R484H]")
5.2
>>> measurement("NNPKEWLQVDFQKTM [synthetic wild type FVIII 15 mer peptide, region of ns-SNP M2238V]")
0.0
>>> measurement("ASEGAEYDDQTSQRE [synthetic wild type FVIII 15 mer peptide]")
0.0
>>> measurement("YSLDGKKWQTYRGNS [synthetic wild type FVIII 15 mer peptide]")
0.0
>>> measurement("VVNSLDPPLLTRYLR [synthetic wild type FVIII 15 mer peptide]")
0.4

Record Stability Index per entry; entries follow.
1. RQNVEGSYDGAYAPV [synthetic wild type FVIII 15 mer peptide, region of ns-SNP D1241E]
2. IARYIRLHPTHYSIR [synthetic wild type FVIII 15 mer peptide]
3. RIHPQSWVHQIALRM [synthetic wild type FVIII 15 mer peptide]

Given back:
1: 0.0; 2: 0.0; 3: 0.0
